- target or test system: human 5-HT2A receptor (Homo sapiens, UniProt P28223)
- Construct: host or cells: CHO-K1
- Sequence (P28223 whole entry): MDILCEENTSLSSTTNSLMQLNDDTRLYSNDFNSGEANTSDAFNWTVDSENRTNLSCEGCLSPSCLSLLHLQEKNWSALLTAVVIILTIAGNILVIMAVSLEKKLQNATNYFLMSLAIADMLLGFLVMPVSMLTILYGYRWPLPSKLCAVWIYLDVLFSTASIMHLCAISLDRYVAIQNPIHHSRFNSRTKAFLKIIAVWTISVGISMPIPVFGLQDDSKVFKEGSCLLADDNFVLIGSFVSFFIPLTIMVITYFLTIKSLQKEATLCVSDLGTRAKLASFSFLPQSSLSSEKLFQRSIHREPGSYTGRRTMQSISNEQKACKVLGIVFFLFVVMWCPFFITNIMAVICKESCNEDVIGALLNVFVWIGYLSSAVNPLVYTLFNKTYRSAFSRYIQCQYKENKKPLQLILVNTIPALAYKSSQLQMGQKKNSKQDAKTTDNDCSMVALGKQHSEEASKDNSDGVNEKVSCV
- measurement protocol: 5HT2A Antagonism Assay (Euroscreen FAST-05051), IP-One HTRF
- Format: cell-based
- setup conditions: read-out: 5-HT2A (IC50), CHO-K1 cells expressing human 5-HT2A, reference agonist at EC80, IP-One
measure name: IC50

In [3]: df
Out[3]:
                                   compound    recorded_value
0  CNCC1Cc2ccc(Cl)cc2Oc2cccnc21 (single isomer, unassigned)         < 1000 nM
1  NCC1Cc2ccccc2Oc2cc(F)ccc21 (single isomer, unassigned)         < 1000 nM
2  NCC1Cc2c(Cl)cccc2Oc2cccnc21 (single isomer, unassigned)         < 1000 nM
3  NCC1Cc2ccncc2Oc2ccccc21 (single isomer, unassigned)  1000 to 10000 nM
4  CNCC1Cc2ccc(C)cc2Oc2cccnc21 (single isomer, unassigned)         < 1000 nM
5  NCC1Cc2ccccc2Oc2cccnc21 (single isomer, unassigned)        > 10000 nM
6  CNCC1Cc2ncccc2Oc2ccc(F)cc21 (single isomer, unassigned)         < 1000 nM
7  NCC1Cc2c(F)cccc2Oc2ccccc21 (single isomer, unassigned)         < 1000 nM
